# System: MV4-11
# Parameters: species or system AML cell lines (8); Primary HTS, single concentration about 10 uM, Cell Titer Glo viability; log10 luminescence, per cent inhibition relative to cycloheximide control
# STUDY CONDITIONS: 72 h, relative to cycloheximide control, log10 luminescence; inhibitor
MEASURED PARAMETER: MV4-11 %inh (%)
Express your answer in %, writing the number without its unit.

O=C1NC(=NCCc2ccccc2Cl)S/C1=C\c1ccc2ncccc2c1 [SJ000581034-1] = -0.3328
CS(=O)(=O)CCNCc1ccc(-c2ccc3ncnc(Nc4ccc(OCc5cccc(F)c5)c(C(F)(F)F)c4)c3c2)o1 [SJ000573152-1, U14859/108/1] = 3.001
Cc1nnc(C(C)C)n1[C@@H]1C[C@H]2CC[C@@H](C1)N2CC[C@H](NC(=O)C1CCC(F)(F)CC1)c1ccccc1 [SJ000555710-1, MARAVIROC] = 0.334

Query block: Can you share its MV4-11 %inh? I mean this molecule: Cn1cc(C2=C(c3cn(C)c4cc(N)ccc34)C(=O)NC2=O)c2ccccc21 [SJ000581154-1]
Result block: 66.53

---

# Test system: M07e
# ASSAY EXPLANATION: cells
# Set-up: species or system AML cell lines (8); Secondary HTS, 10-point dose-response in triplicate, Cell Titer Glo viability, four-parameter fit EC50
# STUDY CONDITIONS: M-07e, 72 h, read-out: M07e
pEC50: −log10 of the molar value.
Listed here: items and their measured pEC50.

# count of solved cases: 5
Cc1ccc(S(=O)(=O)n2c(N)nc3ccccc32)cc1 = < 5.00
CC(C)(C(=O)NCC(F)(F)C(F)(F)F)C(=O)N[C@@H]1C(=O)Nc2ccccc2-c2ccccc21 = < 5.00
CC1=C(/C=C/C(C)=C/C=C/C(C)=C/C(=O)O)C(C)(C)CCC1 = < 5.00
CN(c1ncccc1CNc1nc(Nc2ccc3c(c2)CC(=O)N3)ncc1C(F)(F)F)S(C)(=O)=O = 5.21
Cc1ccc(C(=O)COC(=O)c2cccc(NC(=O)c3ccc([N+](=O)[O-])cc3[N+](=O)[O-])c2)cc1 = < 5.00

Query block: Consider the compound shown here: O[C@@H]1CO[C@H]2[C@@H]1OC[C@@H]2O [ISOSORBIDE] What is its recorded pEC50?
Result block: < 5.00

Query block: Request: CCCCCCCCCCCCCCCc1cccc(O)c1C(=O)O
Result block: < 5.00

Query block: // repeat for O=C(Nc1cccc(NC(=O)c2cccc(O)c2O)c1)c1cccc(O)c1O and report
Result block: 5.28

---

Items are presented alongside their recorded MV4-11 %inh.
# System: MV4-11
# Parameters: species or system AML cell lines (8); Primary HTS, single concentration about 10 uM, Cell Titer Glo viability; log10 luminescence, per cent inhibition relative to cycloheximide control
# STUDY CONDITIONS: 72 h, relative to cycloheximide control, log10 luminescence; inhibitor
// return numeric value only (unit: %, not printed)

Consider the worked cases shown below.
Nc1c(C(=O)c2cccc(CCCN3CCOCC3)c2)cnn1-c1ccc(F)cc1 = -0.6007
CN1CCN(C2=Nc3ccccc3Oc3ccc(Cl)cc32)CC1 [SJ000286106-7, LOXAPINE SUCCINATE] = 2.165
CC(=O)Nc1cccc(C#Cc2cncnc2Nc2ccc(OCc3cccc(F)c3)c(Cl)c2)n1 = 2.175

Query block: What measured MV4-11 %inh goes with Cc1c(C2=C(c3cn(C)c4ccccc34)C(=O)NC2=O)c2ccccc2n1C ?
Result block: -0.1129

Query block: Request: CCCN1CCCC(c2ccc(Nc3nc(Nc4cc(F)ccc4C(N)=O)c4cc[nH]c4n3)c(OC)c2)C1 (stereo not shown)
Result block: 85.37

---

# Test system: MV4-11
# Set-up: species or system AML cell lines (8); Primary HTS, single concentration about 10 uM, Cell Titer Glo viability; log10 luminescence, per cent inhibition relative to cycloheximide control
# STUDY CONDITIONS: 72 h, relative to cycloheximide control, log10 luminescence; inhibitor
MEASURED PARAMETER: MV4-11 %inh (%)
The figure you give is taken to be in %; do not add the unit.

Cc1c(F)c(N2CCNC(C)C2)cc2c1c(=O)c(C(=O)O)cn2C1CC1 (stereo not shown) [SJ000556748-1, GREPAFLOXACIN] = -0.8156

Query block: What does the record list as MV4-11 %inh for CN1CCC(n2cnc(-c3ccc(F)cc3)c2-c2ccnc(Nc3ccccc3)n2)CC1 [SJ000573236-1, TG19207-284A1] ?
Result block: 26.4

Query block: # repeat for O=[N+]([O-])c1ccc2c(c1)C(c1ccccc1Cl)=Nc1cn[nH]c1N2 [SJ000581083-1]
Result block: 0.3353

Query block: And O=C(O)c1cc(-c2ccc(F)cc2F)ccc1O [SJ000285738-4, DIFLUNISAL] ?
Result block: 3.937

Query block: Try the compound O=C1NC(=NCc2ccccn2)S/C1=C\c1ccc2ncccc2c1 [SJ000581006-1]
Result block: 1.986

Query block: Also CS(=O)(=O)N1CCC(n2c(=O)c(Oc3ccc(F)cc3F)cc3cnc(NC4CCOCC4)nc32)CC1 [SJ000580975-1] ?
Result block: 2.449

Query block: Repeat for the following compound: Clc1ccc2c(N3CCN(CCCN4CCN(c5ccnc6cc(Cl)ccc56)CC4)CC3)ccnc2c1 [SJ000518980-1, PIPERAQUINE PHOSPHATE]
Result block: 0.4168

---

# Tested on: CMS
# Parameters: species or system AML cell lines (8); Primary HTS, single concentration about 10 uM, Cell Titer Glo viability; log10 luminescence, per cent inhibition relative to cycloheximide control
# STUDY CONDITIONS: 72 h, relative to cycloheximide control, log10 luminescence; inhibitor
MEASURED PARAMETER: CMS %inh

COc1ccc(-c2nn3ncccc3c2-c2ccnc(Nc3ccc(Cl)c(C(F)(F)F)c3)n2)cc1 [SJ000573073-1, U17838/183/2] = 0.1387%
CCCCCNC(=O)[C@@H]1CCCN2C(=O)CC[C@H](NC(=O)[C@H](Cc3ccc(OP(=O)(O)O)cc3)NC(C)=O)C(=O)N12 [SJ000580996-1] = -2.301%
CCn1c(-c2nonc2N)nc2ccc(F)cc21 [SJ000573344-1, U17602/50/1] = -1.218%

Now for another entry.
Query block: So what's the measured CMS %inh for this one? CC(=O)[C@H]1CC[C@H]2[C@@H]3CC=C4C[C@@H](O)CC[C@]4(C)[C@H]3CC[C@]12C [SJ000281777-6, PREGNENOLONE]
Result block: 6.885%

---

Property: EC50; scope: individual compounds
# Tested on: MV4-11
# ASSAY EXPLANATION: cells
# Parameters: species or system AML cell lines (8); Secondary HTS, 10-point dose-response in triplicate, Cell Titer Glo viability, four-parameter fit EC50
# STUDY CONDITIONS: Homo sapiens, MV4-11, 72 h, read-out: MV4-11

COC(=O)[C@]12CCC(C)(C)C[C@H]1[C@H]1C(=O)C=C3[C@@]4(C)C=C(C#N)C(=O)C(C)(C)[C@@H]4CC[C@@]3(C)[C@]1(C)CC2 = > 10 µM
CC(C)Oc1ccc(-c2cnc3c(-c4ccnc5ccccc45)cnn3c2)cc1 = > 10 µM
CCNC(=O)c1cc2c(-c3cc(OCCN4CCCC4)c(Cl)cc3Cl)nc(N)nc2s1 = 0.11 µM
CCOC(=O)c1ccc(C#Cc2ccc3c(c2)C(C)(C)CCS3)nc1 = > 10 µM
C[C@@H]1COCCN1c1cc(C2(S(C)(=O)=O)CC2)nc(-c2cccc3[nH]ccc23)n1 = > 10 µM

Query block: Look up EC50: CN[C@@H]1C[C@H]2O[C@@](C)([C@@H]1OC)n1c3ccccc3c3c4c(c5c6ccccc6n2c5c31)C(=O)N[C@H]4O [SJ000784325, 7-HYDROXYSTAUROSPORINE]
Result block: 0.19 µM

Query block: Thanks! And CC(C)(C#N)c1ccc(N2C(=O)OCc3cnc4ccc(-c5cnc6ccccc6c5)cc4c32)cc1 ?
Result block: > 10 µM

Query block: Param item: CCOC(=O)C1=C(C)NC2=C(C(=O)CC(C)(C)C2)C1c1ccc(-c2ccccc2)cc1 (stereo not drawn)
Result block: > 10 µM

Query block: Next record, please: CS(=O)(=O)c1ccc(-c2cnc(N)c(C(=O)Nc3ccccc3)n2)cc1
Result block: > 10 µM

Query block: Proceed to Oc1cccc(-c2nc(N3CCOCC3)c3oc4ncccc4c3n2)c1
Result block: 1.5 µM

Query block: Same question, CC(C)[C@H](C(=O)Nc1ccc(C(=O)NO)cc1)c1ccccc1 [(S)-HDAC-42] this time
Result block: > 10 µM

Query block: Now this one: COc1ccc(Cn2ccc3ccc(C(=O)NO)cc32)cc1
Result block: > 10 µM
